Species on record: Mus musculus
Test: Skin irritant activity in NMRI mouse ear assessed as irritant dose 50 per ear after 24 hrs
Assay type: ADME, organism-based
Conditions: in vivo
property.measured: Activity (nmol)
Give bare numbers, in nmol.

C=C(C)[C@]12O[C@@]3(/C=C/C=C/C=C\CCC)O[C@@H]1[C@@H]1[C@@H]4O[C@]4(CO)[C@@H](O)[C@]4(O)C(=O)C(C)=C[C@H]4[C@@]1(O3)[C@H](C)[C@H]2O = 0.81
C=C(C)[C@]12O[C@@]3(/C=C/C=C/CCCCC)O[C@@H]1[C@@H]1[C@@H]4O[C@]4(CO)[C@@H](O)[C@]4(O)C(=O)C(C)=C[C@H]4[C@@]1(O3)[C@H](C)[C@H]2OC(C)=O = 0.27
C=C(C)[C@]12C[C@@H](C)[C@@]34O[C@](CCCCCCCCC)(O[C@@H]1[C@@H]3[C@@H]1O[C@]1(CO)[C@@H](O)[C@]1(O)C(=O)C(C)=C[C@H]14)O2 = 0.013

The record that follows has no Activity shown yet.
[Q] What measured Activity goes with C=C(C)[C@]12O[C@@]3(/C=C/C=C/CCCCCCCCC)O[C@@H]1[C@@H]1[C@@H]4O[C@]4(CO)[C@@H](O)[C@]4(O)C(=O)C(C)=C[C@H]4[C@@]1(O3)[C@H](C)[C@H]2OC(C)=O ?
[A] 0.03
